- ASSAY NOTES: Antiviral activity using H1HeLa cells (ATCC) infected with HRV-14
pEC50: −log10 of the molar value.
ASSAY ENDPOINT: pEC50

// known answers, use as guide
compound=CN(C)c1ccc(C(=O)/C=C/c2cccc(C(N)=O)c2)cc1 assay_endpoint=pEC50 recorded_result="< 4.82"
compound=COc1ccc(C(=O)/C=C/c2cccc(C(N)=O)c2)cc1 assay_endpoint=pEC50 recorded_result="< 4.66"

Item NC(=O)c1ccc2c(c1)C=CC2=O [1-Oxo-1H-indene-5-carboxylic acid amide] has what recorded pEC50?
< 4.70
